Hello, the source for this data is patent US6235791A, in case you need it.

Tested on: LY2 p22-23 (MCF-7LY2)
method_description: proliferation of mammary epithelial cells, IC50 after 6 days
Assay type: cell-based
test_settings: Homo sapiens, Epithelial cell, 144 h; LY2 p22-23, 10% FCS, 6 days of treatment

chemical_structure | IC50
CCN(C/C=C\c1ccc(C2CCCCC2)c(Cl)c1)C1CCCCC1 | > 100 nM

====

Test system: MCF7 AZ
method_description: proliferation of mammary epithelial cells, IC50 after 6 days
Assay type: cell-based
test_settings: Homo sapiens, 144 h, 10% FCS, 6 days of treatment
pIC50: −log10 of the molar value.
observation_type: pIC50

chemical_structure | tgt | result
CCN(C/C=C\c1ccc(C2CCCCC2)c(Cl)c1)C1CCCCC1 | MCF7 AZ | < 6.00

====

System: LCC2 p26-27 (MCF-7LCC2)
method_description: proliferation of mammary epithelial cells, IC50 after 6 days
Assay type: cell-based, human
test_settings: Homo sapiens, LCC2, 144 h, LCC2 p26-27, 0.1 DCC, 6 days of treatment

chemical_structure | IC50, nM
CCN(C/C=C\c1ccc(C2CCCCC2)c(Cl)c1)C1CCCCC1 | 2

====

Tested on: SN 47 p4 normal cells
method_description: proliferation of mammary epithelial cells, IC50 after 6 days
Format: cell-based
test_settings: Epithelial cell, 144 h, 0.5% FCS, 6 days of treatment

chemical_structure | value_units | IC50
CCN(C/C=C\c1ccc(C2CCCCC2)c(Cl)c1)C1CCCCC1 | µM | 0.4

====

Tested on: LCC2 p26-27 (MCF-7LCC2)
method_description: proliferation of mammary epithelial cells, IC50 after 6 days
Type: cell-based, human
test_settings: LCC2 p26-27, 5% DCC, 6 days of treatment
pIC50: −log10 of the molar value.
observation_type: pIC50

molecule | observation_type | numeric_result
CCN(C/C=C\c1ccc(C2CCCCC2)c(Cl)c1)C1CCCCC1 [SR 31747] | pIC50 | 6.52
